Tested on: K12877-001-R-J1-PDC complex spheroid viability
Assay: Anticancer human tumor K12877-001-R-J1-PDC patient-derived lung adenocarcinoma cell line growth inhibition [RAS]
Conditions: curve of first compound; second compound 0.0316 µM
pIC50: −log10 of the molar value.
Give measured pIC50 for each item. Keep answers brief.

Quick one: pIC50 for O=C(c1ccc(F)c(F)c1Nc1ccc(I)cc1F)N1CC(O)([C@@H]2CCCCN2)C1 + C#Cc1c(F)ccc2cc(O)cc(-c3ncc4c(N5CC6CCC(C5)N6)nc(OCC56CCCN5CC(F)C6)nc4c3F)c12 ? < 6.00

Fill blank: measured pIC50 of the compound C=CC(=O)Nc1cc(Nc2nccc(-c3cn(C)c4ccccc34)n2)c(OC)cc1N(C)CCN(C)C + C=CC(=O)N1CCN(c2nc(OCC3CCCN3C)nc3c(F)c(-c4nc(N)cc(C)c4C(F)(F)F)c(Cl)cc23)C(C)C1 is ____. < 6.00

GET /values?readout=pIC50&item= Cc1nc(N2CCC3(CC2)COC(C)C3N)c(CO)nc1Sc1ccnc(N)c1Cl (stereo not drawn) + C#Cc1c(F)ccc2cc(O)cc(-c3ncc4c(N5CC6CCC(C5)N6)nc(OCC56CCCN5CC(F)C6)nc4c3F)c12 < 5.00

# input compound: C[C@@H](NC(=O)c1ncnc(N)c1Cl)c1ncc(C(=O)Nc2cc(C(F)(F)F)c(Cl)cn2)s1 + C#Cc1c(F)ccc2cc(O)cc(-c3ncc4c(N5CC6CCC(C5)N6)nc(OCC56CCCN5CC(F)C6)nc4c3F)c12 ; wanted: its pIC50 < 5.00

Looking for the measured pIC50 of CC(=O)OC12COC1CC(O)C1(C)C(=O)C(O)C3=C(C)C(OC(=O)C(O)C(NC(=O)OC(C)(C)C)c4ccccc4)CC(O)(C(OC(=O)c4ccccc4)C21)C3(C)C (stereo not drawn) + C#Cc1c(F)ccc2cc(O)cc(-c3ncc4c(N5CC6CCC(C5)N6)nc(OCC56CCCN5CC(F)C6)nc4c3F)c12 , can you help? > 7.50

Which pIC50 is reported for this compound? C[C@@H](NC(=O)c1ncnc(N)c1Cl)c1ncc(C(=O)Nc2cc(C(F)(F)F)c(Cl)cn2)s1 + C=CC(=O)N1CCN(c2nc(OCC3CCCN3C)nc3c(F)c(-c4nc(N)cc(C)c4C(F)(F)F)c(Cl)cc23)C(C)C1 < 5.00

Any idea what pIC50 was measured for C=CC(=O)Nc1cc(Nc2nccc(-c3cn(C)c4ccccc34)n2)c(OC)cc1N(C)CCN(C)C + C#Cc1c(F)ccc2cc(O)cc(-c3ncc4c(N5CC6CCC(C5)N6)nc(OCC56CCCN5CC(F)C6)nc4c3F)c12 ? < 6.00

Please look up its pIC50: Cc1nc(N2CCC3(CC2)COC(C)C3N)c(CO)nc1Sc1ccnc(N)c1Cl (stereo not drawn) + C=CC(=O)N1CCN(c2nc(OCC3CCCN3C)nc3c(F)c(-c4nc(N)cc(C)c4C(F)(F)F)c(Cl)cc23)C(C)C1 < 5.00

----------
Tested on: K12877-001-R-J1-PDC complex spheroid viability
Assay: Anticancer human tumor K12877-001-R-J1-PDC cell line growth inhibition [RAS];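 further: spheroids exposed to agents for one week before readout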
Details: curve of first compound; second compound 0.0949 µM
Description: RAS pathway inhibitors in Combinations in Complex Spheroids A high-throughput screen of multi-cell type tumor spheroids was designed to identify active combinations of RAS pathway inhibitors and targeted small molecules. Complex spheroids include a stromal component modeled by human endothelial cells (HUVEC) and fibroblasts modeled by human mesenchymal stem cells (MSCs). […] Compounds. […] If the clinical Cmax for an agent had not been determined, the highest concentration tested was 10 microM. […]
Assay endpoint: IC50

What does the record list as IC50 for C=CC(=O)Nc1cc(Nc2nccc(-c3cn(C)c4ccccc34)n2)c(OC)cc1N(C)CCN(C)C + CCn1c(-c2cccnc2C(C)OC)c2c3cc(ccc31)N1CCOC(CC(NC(=O)C(C(C)C)N(C)C(=O)C3(F)CCN(C(=O)C#CC(C)(C)N(C)C)CC3)C(=O)N3CCCC(N3)C(=O)OCC(C)(C)C2)C1 ? > 1000 nM

Requested read-out: IC50. Entry: C=CC(=O)N1CCN(c2nc(OCC3CCCN3C)nc3c(F)c(-c4nc(N)cc(C)c4C(F)(F)F)c(Cl)cc23)C(C)C1 (centres undefined) + CCn1c(-c2cc(N3CCN(C)CC3)cnc2C(C)OC)c2c3cc(ccc31)-c1csc(n1)CC(NC(=O)C1CC1C)C(=O)N1CCCC(N1)C(=O)OCC(C)(C)C2 > 1000 nM

Please give the measured IC50 for this compound: CC(=O)OC12COC1CC(O)C1(C)C(=O)C(O)C3=C(C)C(OC(=O)C(O)C(NC(=O)OC(C)(C)C)c4ccccc4)CC(O)(C(OC(=O)c4ccccc4)C21)C3(C)C (centres undefined) + CCn1c(-c2cccnc2C(C)OC)c2c3cc(ccc31)N1CCOC(CC(NC(=O)C(C(C)C)N(C)C(=O)C3(F)CCN(C(=O)C#CC(C)(C)N(C)C)CC3)C(=O)N3CCCC(N3)C(=O)OCC(C)(C)C2)C1 < 31.6 nM

Can you look up the measured IC50 of C[C@@H](NC(=O)c1ncnc(N)c1Cl)c1ncc(C(=O)Nc2cc(C(F)(F)F)c(Cl)cn2)s1 + CCn1c(-c2cc(N3CCN(C)CC3)cnc2C(C)OC)c2c3cc(ccc31)-c1csc(n1)CC(NC(=O)C1CC1C)C(=O)N1CCCC(N1)C(=O)OCC(C)(C)C2 for me? > 10000 nM

----------
Tested on: K12877-001-R-J1-PDC complex spheroid viability
Test: Anticancer human tumor K12877-001-R-J1-PDC cell line growth inhibition [RAS];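 further: spheroids exposed to agents for one week before readout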;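 on viability, T/C: tumour cells co-cultured with HUVEC and mesenchymal stem cells in spheroids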
Details: second compound 0.0949 µM; first compound 0.01 µM; stronger effect = lower value
Note to self: use 1 (yes) only for viability, T/C readings below 70%; a reading exactly at 70% still gets 0 (no).

viability, T/C strictly < 70% for this molecule? Nc1ccn(C2OC(CO)C(O)C2(F)F)c(=O)n1 (stereo not given) + CCn1c(-c2cccnc2C(C)OC)c2c3cc(ccc31)N1CCOC(CC(NC(=O)C(C(C)C)N(C)C(=O)C3(F)CCN(C(=O)C#CC(C)(C)N(C)C)CC3)C(=O)N3CCCC(N3)C(=O)OCC(C)(C)C2)C1 1 (yes)

Threshold test, viability, T/C < 70%: CC(C)n1nc(-c2ccc3oc(N)nc3c2)c2c(N)ncnc21 + CCn1c(-c2cc(N3CCN(C)CC3)cnc2C(C)OC)c2c3cc(ccc31)-c1csc(n1)CC(NC(=O)C1CC1C)C(=O)N1CCCC(N1)C(=O)OCC(C)(C)C2 1 (yes)

Please let me know if C=CC(=O)Nc1cc(Nc2nccc(-c3cn(C)c4ccccc34)n2)c(OC)cc1N(C)CCN(C)C + CCn1c(-c2cc(N3CCN(C)CC3)cnc2C(C)OC)c2c3cc(ccc31)-c1csc(n1)CC(NC(=O)C1CC1C)C(=O)N1CCCC(N1)C(=O)OCC(C)(C)C2 shows viability, T/C below 70%. 0 (no)

Threshold test, viability, T/C < 70%: C=CC(=O)Nc1cc(Nc2nccc(-c3cn(C)c4ccccc34)n2)c(OC)cc1N(C)CCN(C)C + CCn1c(-c2cccnc2C(C)OC)c2c3cc(ccc31)N1CCOC(CC(NC(=O)C(C(C)C)N(C)C(=O)C3(F)CCN(C(=O)C#CC(C)(C)N(C)C)CC3)C(=O)N3CCCC(N3)C(=O)OCC(C)(C)C2)C1 0 (no)

Decide: viability, T/C of C=CC(=O)N1CCN(c2nc(OCC3CCCN3C)nc3c(F)c(-c4nc(N)cc(C)c4C(F)(F)F)c(Cl)cc23)C(C)C1 (stereo not given) + CCn1c(-c2cc(N3CCN(C)CC3)cnc2C(C)OC)c2c3cc(ccc31)-c1csc(n1)CC(NC(=O)C1CC1C)C(=O)N1CCCC(N1)C(=O)OCC(C)(C)C2 strictly below 70%? 0 (no)

----------
Test system: K12877-001-R-J1-PDC complex spheroid viability
Test: Anticancer human tumor K12877-001-R-J1-PDC cell line growth inhibition [RAS]; active = viability on the fitted dose curve at most 10% of control; inactive = the rest;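 further: spheroids exposed to agents for one week before readout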
Settings: second compound 0.316 µM; first compound 0.316 µM
Please state which outcome applies, choosing from active, inactive

What classification did CC(=O)OC12COC1CC(O)C1(C)C(=O)C(O)C3=C(C)C(OC(=O)C(O)C(NC(=O)OC(C)(C)C)c4ccccc4)CC(O)(C(OC(=O)c4ccccc4)C21)C3(C)C (stereo not drawn) + C=CC(=O)N1CCN(c2nc(OCC3CCCN3C)nc3c(F)c(-c4nc(N)cc(C)c4C(F)(F)F)c(Cl)cc23)C(C)C1 end up with in this test? active

Each molecule tested received a call. Report the one for O=C(c1ccc(F)c(F)c1Nc1ccc(I)cc1F)N1CC(O)([C@@H]2CCCCN2)C1 + C=CC(=O)N1CCN(c2nc(OCC3CCCN3C)nc3c(F)c(-c4nc(N)cc(C)c4C(F)(F)F)c(Cl)cc23)C(C)C1 . inactive

Could you check what this test reported for Cc1nc(N2CCC3(CC2)COC(C)C3N)c(CO)nc1Sc1ccnc(N)c1Cl (stereo not drawn) + C#Cc1c(F)ccc2cc(O)cc(-c3ncc4c(N5CC6CCC(C5)N6)nc(OCC56CCCN5CC(F)C6)nc4c3F)c12 ? inactive
